// provenance: paper PMC12195982

Would you mind telling me the reported log10 MIC of each entry?
- Test system: Mtb strain H37Rv ATCC 27294
- experimentNotes: Microplate Alamar Blue Assay (MABA), susceptible strain
- Format: cell-based
- runParameters: Mycobacterium tuberculosis, Mtb H37Rv, strain sensitive to all first- and second-line drugs; MABA; triplicate; read-out: MIC
Parameter value (number): base-10 log of MIC in µg/mL.

Give the measured log10 MIC for CC1=C(Cn2cc(CSc3ccccc3)nn2)C(=O)c2ccccc2C1=O [Compound 10a] 2.00

Let me know recorded log10 MIC for CC1=C(C(C)n2cc(CSc3ccccc3)nn2)C(=O)c2ccccc2C1=O (stereo not shown) [Compound 10f] , thanks. 2.00

Dear colleague, please send me the reported log10 MIC for NNC(=O)c1ccncc1 [INH, isoniazid, reference compound] when you can. -0.92

Give the reported value of log10 MIC for this record: CC1=C(C(C)n2cc(C[Se]c3ccccc3)nn2)C(=O)c2ccccc2C1=O (stereo not shown) [Compound 9f] 0.79

Check the records and state log10 MIC for NC(=O)c1cnccn1 [PZA, pyrazinamide, reference compound] 2.00

Return the recorded log10 MIC value; entry: CC1=C(Cn2cc(C[Se]c3ccc4ccccc4c3)nn2)C(=O)c2ccccc2C1=O [Compound 9e] 2.00

In one line, give reported log10 MIC of the entry CC1=C(C(c2ccccc2)n2cc(C[Se]c3ccccc3)nn2)C(=O)c2ccccc2C1=O (stereo not shown) [Compound 9g] . 1.10
